System: Nucleic Acid
Test: DNA cleavage activity as 70% FormI DNA cleavage
Assay type: nucleic-acid assay
readout_type: C70
In your response, the unit should come after the numeric value.

Prompt: Reported C70 for Nucleic Acid, given "O=S(=O)(CC#CCCCC#CCO)c1ccc2ccccc2c1" ?
Response: 10 µM

Prompt: Reported C70 for Nucleic Acid, given "O=S(=O)(CC#CCCCC#CCO)c1ccccc1" ?
Response: 1000 µM

Prompt: Reported C70 for Nucleic Acid, given CCCC(O)C#CCS(=O)(=O)c1ccc2ccccc2c1 (centres undefined) ?
Response: 5 µM

Prompt: Reported C70 for Nucleic Acid, given CCCC(O)C#CCS(=O)(=O)c1ccccc1 (centres undefined) ?
Response: 800 µM
